test: Plasma pharmacokinetics in vivo; conditions: SD, rat, po; plasma analyte after i.g. Cbz-dFdC 22 mg/kg, rats
I'd appreciate it if you could supply Tmax values for the items below.
Hi! Could you send only the number? It should be in h, unit omitted.

Req: Give the reported Tmax for this compound. Nc1ccn([C@@H]2O[C@H](CO)[C@@H](O)C2(F)F)c(=O)n1 [dFdC, Gemcitabine]
Resp: 4

Req: Give the reported Tmax for this compound. O=C(Nc1ccn([C@@H]2O[C@H](CO)[C@@H](O)C2(F)F)c(=O)n1)OCc1ccccc1 [Cbz-dFdC, 4-N-carbobenzoxy-gemcitabine]
Resp: 2

---

test: Plasma pharmacokinetics in vivo; settings: SD, rat, plasma, 15 mg/kg; after dFdC intravenous injection, rats, 48 h
MEASURED PROPERTY: concentration at 48 h

Req: Give the reported concentration at 48 h for this compound. Nc1ccn([C@@H]2O[C@H](CO)[C@@H](O)C2(F)F)c(=O)n1
Resp: ~40 ng/mL

---

Experiment: Enzymatic kinetics in vitro, rat blood
Assay type: in vitro ADME
Details: SD, 37 °C, 30 min, 5–200 μM Cbz-dFdC, read-out: Clint, disappearance of Cbz-dFdC
Experimental: The SD rats without any treatment were sacrificed after adapting to the environment. Blank blood, the liver, the kidney, and the intestine were collected and treated as described in Section 4.4. Part of the homogenate was removed for centrifugation for 20 min at 9000× g at 4 °C, and the supernatant was obtained as tissue S9. The tissue homogenate and S9 were diluted to […] after the protein concentration was determined by the BCA kit (Abcam, Cambridge, MA, USA). […]
MEASURED PROPERTY: microsomal CLint
Quote the value and follow it with the unit of measurement.

Req: Give the reported microsomal CLint for this compound. O=C(Nc1ccn([C@@H]2O[C@H](CO)[C@@H](O)C2(F)F)c(=O)n1)OCc1ccccc1 [Cbz-dFdC, 4-N-carbobenzoxy-gemcitabine]
Resp: 4890 µL/min/mg

---

experiment: Enzymatic kinetics in vitro, rat kidney S9; assay type: in vitro ADME; conditions: SD, 37 °C, 30 min, 5–200 μM Cbz-dFdC, read-out: Clint, disappearance of Cbz-dFdC
MEASURED PROPERTY: microsomal CLint (µL/min/mg)
Hi! Could you send only the number? It should be in µL/min/mg, unit omitted.

Req: Give the reported microsomal CLint for this compound. O=C(Nc1ccn([C@@H]2O[C@H](CO)[C@@H](O)C2(F)F)c(=O)n1)OCc1ccccc1 [Cbz-dFdC, 4-N-carbobenzoxy-gemcitabine]
Resp: 770

---

assay: Enzymatic kinetics in vitro, rat liver S9; type: in vitro ADME; conditions: SD, 37 °C, 30 min, 5–200 μM Cbz-dFdC, read-out: Clint, disappearance of Cbz-dFdC
MEASURED PROPERTY: microsomal CLint (µL/min/mg)
Hi! Could you send only the number? It should be in µL/min/mg, unit omitted.

Req: Give the reported microsomal CLint for this compound. O=C(Nc1ccn([C@@H]2O[C@H](CO)[C@@H](O)C2(F)F)c(=O)n1)OCc1ccccc1
Resp: 1760
